Target: MurD (UniProt P14900)
Sequence (whole entry): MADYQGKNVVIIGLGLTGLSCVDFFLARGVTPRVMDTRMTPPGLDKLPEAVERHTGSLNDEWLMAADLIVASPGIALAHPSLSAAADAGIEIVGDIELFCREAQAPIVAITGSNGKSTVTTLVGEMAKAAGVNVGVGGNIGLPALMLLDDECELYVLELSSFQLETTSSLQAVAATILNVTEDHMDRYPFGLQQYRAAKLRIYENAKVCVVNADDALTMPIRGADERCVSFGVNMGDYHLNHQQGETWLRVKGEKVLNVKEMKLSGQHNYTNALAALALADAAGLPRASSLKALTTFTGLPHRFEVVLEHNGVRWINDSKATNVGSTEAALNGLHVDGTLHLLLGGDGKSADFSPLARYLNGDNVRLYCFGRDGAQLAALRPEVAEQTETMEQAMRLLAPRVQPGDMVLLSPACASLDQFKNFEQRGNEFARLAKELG
Test: relative enzymatic activity vs untreated control (fraction); higher = less inhibition
Details: 100 µM; incubation time: 2 h at 37 C
// values below are reported relative enzymatic activity

>  <compound>
CN(C)C1C(O)=C(C(N)=O)C(=O)C2(O)C(O)=C3C(=O)c4c(O)cccc4C(C)(O)C3C(O)C12.Cl (stereo not given)

>  <relative enzymatic activity>
0.635

$$$$
>  <compound>
N[C@H]1CCN(c2nc3c(cc2F)c(=O)c(C(=O)O)cn3-c2ccc(F)cc2F)C1

>  <relative enzymatic activity>
0.586

$$$$
>  <compound>
CON=C(C(=O)NC1C(=O)N2C(C(=O)[O-])=C(COC(C)=O)CSC12)c1csc(N)n1.[Na+] (stereo not given)

>  <relative enzymatic activity>
0.575

$$$$
>  <compound>
COc1c(N2CC3CCCNC3C2)c(F)cc2c(=O)c(C(=O)O)cn(C3CC3)c12.Cl (stereo not given)

>  <relative enzymatic activity>
0.597

$$$$
>  <compound>
CC[C@@H](C)CCCCC(=O)N[C@@H](CCN)C(=O)N[C@H](C(=O)N[C@@H](CCN)C(=O)N[C@H]1CCNC(=O)[C@H]([C@@H](C)O)NC(=O)[C@H](CCN)NC(=O)[C@H](CCN)NC(=O)[C@H](CC(C)C)NC(=O)[C@@H](Cc2ccccc2)NC(=O)[C@@H](CCN)NC1=O)[C@@H](C)O

>  <relative enzymatic activity>
0.674

$$$$
>  <compound>
COC(=O)N/N=C/c1ccc([N+](=O)[O-])o1

>  <relative enzymatic activity>
0.636

$$$$
>  <compound>
O=C(NC(CO)C(O)c1ccc([N+](=O)[O-])cc1)C(Cl)Cl (stereo not given)

>  <relative enzymatic activity>
0.548

$$$$
>  <compound>
CC1CCC2(C)C(C=O)=CCCC2C1(C)CC1OC(O)C(=O)C12CO2 (stereo not given)

>  <relative enzymatic activity>
0.612

$$$$
>  <compound>
COc1cc2c(cc1OC)C(=O)C(CC1CCN(Cc3ccccc3)CC1)C2.Cl (stereo not given)

>  <relative enzymatic activity>
0.456

$$$$
>  <compound>
O=C1CN(N=Cc2ccc([N+](=O)[O-])o2)C(=O)N1

>  <relative enzymatic activity>
0.593

$$$$
